All figures here come from patent US12358948B2.

Molecular target: hNTS2 receptor (Homo sapiens, UniProt O95665)
Construct: membranes prepared from them
Sequence (O95665 whole entry): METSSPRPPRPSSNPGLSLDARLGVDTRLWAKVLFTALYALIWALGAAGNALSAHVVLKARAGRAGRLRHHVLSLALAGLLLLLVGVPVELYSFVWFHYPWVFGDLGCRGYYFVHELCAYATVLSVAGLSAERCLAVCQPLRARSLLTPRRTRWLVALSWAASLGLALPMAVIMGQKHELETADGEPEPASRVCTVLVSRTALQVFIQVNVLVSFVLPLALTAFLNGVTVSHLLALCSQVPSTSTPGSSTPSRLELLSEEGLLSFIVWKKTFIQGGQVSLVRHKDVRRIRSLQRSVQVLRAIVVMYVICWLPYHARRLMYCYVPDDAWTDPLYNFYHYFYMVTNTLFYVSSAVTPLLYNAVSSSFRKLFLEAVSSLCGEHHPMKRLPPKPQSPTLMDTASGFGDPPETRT
Test: Competitive radioligand binding assay on the hNTS2 receptor
Conditions: displacement of 125I-[Tyr3]-NT, membranes of 1321N1 cells expressing hNTS2; read-out: IC50 NTS2 (converted)
Where a SMILES comes first, the peptide text is derived from it. Bridges are numbered along the chain shown (N, C = ends). [ ]: non-standard residue; d: D form. Phe(4-CF3) = N[C@@H](Cc1ccc(C(F)(F)F)cc1)C(=O)O; Phe(4-tBu) = CC(C)(C)c1ccc(C[C@H](N)C(=O)O)cc1; Phe(4-CN) = N#Cc1ccc(C[C@H](N)C(=O)O)cc1; Phe(4-F) = N[C@@H](Cc1ccc(F)cc1)C(=O)O; Ala(cPent) = N[C@@H](CC1CCCC1)C(=O)O; Tic = O=C(O)[C@@H]1Cc2ccccc2CN1; AllylGly = C=CC[C@H](N)C(=O)O; hLys = NCCCCC[C@H](N)C(=O)O; Nle = CCCC[C@H](N)C(=O)O; Orn = NCCC[C@H](N)C(=O)O; Dab = NCC[C@H](N)C(=O)O
result_type: IC50 (nM)

Example compounds with recorded IC50:
input: Can you share its IC50? I mean this compound: CC(C)C[C@H](NC(=O)[C@H](Cc1ccc(F)cc1)NC(=O)[C@@H]1CC=CC[C@H](N)C(=O)N[C@@H](CCCCN)C(=O)N[C@@H](CCCCN)C(=O)N1)C(=O)O [compound 77, c[G(All)KKG(All)]F(4-fluoro)L] (H-[AllylGly]KK[AllylGly][Phe(4-F)]L-OH; staple 1-4)
output: 95.6

input: May I ask what IC50 has been recorded for CC(C)C[C@H](NC(=O)[C@H](Cc1ccc(C#N)cc1)NC(=O)[C@@H]1CC=CC[C@H](N)C(=O)N[C@@H](CCCCN)C(=O)N[C@@H](CCCCN)C(=O)N1)C(=O)O [compound 118, c[G(All)KKG(All)]F(4-cyano)L] (H-[AllylGly]KK[AllylGly][Phe(4-CN)]L-OH; staple 1-4) ?
output: 57.8

input: Endpoint output: IC50 of CC(C)C[C@H](NC(=O)[C@@H]1Cc2ccccc2CN1C(=O)[C@@H]1CC=CC[C@H](N)C(=O)N[C@@H](CCCCN)C(=O)N[C@@H](CCCCN)C(=O)N1)C(=O)O [compound 167, c[G(All)KKG(All)]G(Tic)*L*] (H-[AllylGly]KK[AllylGly][Tic]L-OH; staple 1-4) . Value?
output: 96.2

input: Requested field: IC50. Item: CC(C)C[C@H](NC(=O)[C@@H](Cc1ccc(O)cc1)NC(=O)[C@@H]1CC=CC[C@H](N)C(=O)N[C@@H](CCCCN)C(=O)N[C@@H](CCCCN)C(=O)N1)C(=O)O [compound 21, c[G(All)KKG(All)]Y*L] (H-[AllylGly]KK[AllylGly][dY]L-OH; staple 1-4)
output: 4700

input: Record request: IC50 value, item CC(C)C[C@H](NC(=O)[C@H](Cc1ccc(C(C)(C)C)cc1)NC(=O)[C@@H]1CC=CC[C@H](N)C(=O)N[C@@H](CCCCN)C(=O)N[C@@H](CCCCN)C(=O)N1)C(=O)O [compound 110, c[G(All)KKG(All)]F(4-tbu)L] (H-[AllylGly]KK[AllylGly][Phe(4-tBu)]L-OH; staple 1-4)
output: 40.2

input: Requested field: IC50. Item: CC(C)C[C@H](NC(=O)[C@H](Cc1ccc(C(F)(F)F)cc1)NC(=O)[C@@H]1CC=CC[C@H](N)C(=O)N[C@@H](CCCCN)C(=O)N[C@@H](CCCCN)C(=O)N1)C(=O)O [compound 111, c[G(All)KKG(All)]F(4-CF3)L] (H-[AllylGly]KK[AllylGly][Phe(4-CF3)]L-OH; staple 1-4)
output: 47.9

input: Which IC50 value belongs to CC(C)C[C@H](NC(=O)[C@H](CC1CCCC1)NC(=O)[C@@H]1CC=CC[C@H](N)C(=O)N[C@@H](CCCCN)C(=O)N[C@@H](CCCCN)C(=O)N1)C(=O)O [compound 142, c[G(All)KKG(All)]A (cyclopentyl)L] (H-[AllylGly]KK[AllylGly][Ala(cPent)]L-OH; staple 1-4) ?
output: 204

input: Fill in the blank: the reported IC50 of CC(C)C[C@H](NC(=O)[C@H](Cc1ccc(Br)cc1)NC(=O)[C@@H]1CC=CCCC(=O)N[C@@H](CCCCN)C(=O)N[C@@H](CCCCN)C(=O)N1)C(=O)O [compound 131, c[K(pentenoyl)KG(All)](4-bromo)L] is ____.
output: 27.4

input: Sample CC(C)C[C@H](NC(=O)[C@H](Cc1ccc(O)cc1)NC(=O)[C@@H]1CCC(=O)NCC[C@H](N)C(=O)N[C@@H](CCCCN)C(=O)N[C@@H](CCCCN)C(=O)N1)C(=O)O [compound 99, c[DabKKE]YL] (H-[Dab]KKEYL-OH; lactam 1-4) — what was its IC50?
output: 11000

input: // query IC50 value for entry CC(C)C[C@H](NC(=O)[C@H](Cc1ccc(O)cc1)NC(=O)[C@@H]1CC=CC[C@H](N)C(=O)N[C@@H](CCCCN)C(=O)N[C@@H](CCCCCN)C(=O)N1)C(=O)O [compound 149, c[G(All)KhomolysineG(All)]YL] (H-[AllylGly]K[hLys][AllylGly]YL-OH; staple 1-4)
output: 214

P = CC(C)C[C@H](NC(=O)[C@H](Cc1ccc(Br)cc1)NC(=O)C1(C)CCCC=CCCC(=O)N[C@@H](CCCCN)C(=O)N[C@@H](CCCCN)C(=O)N1)C(=O)O (some centres unmarked)
Q = CC(C)C[C@H](NC(=O)[C@H](Cc1ccc(O)cc1)NC(=O)[C@@H]1CC=CC[C@H](N)C(=O)N[C@@H](CCC(=O)O)C(=O)N[C@@H](CCCCN)C(=O)N1)C(=O)O [compound 88, c[G(All)EKG(All)]YL] (H-[AllylGly]EK[AllylGly]YL-OH; staple 1-4)
R = CCCC[C@@H]1NC(=O)[C@H](CCCCN)NC(=O)[C@@H](N)CC=CC[C@@H](C(=O)N[C@@H](Cc2ccc(O)cc2)C(=O)N[C@@H](CC(C)C)C(=O)O)NC1=O [compound 57, c[G(All)KNleG(All)]YL] (H-[AllylGly]K[Nle][AllylGly]YL-OH; staple 1-4)
S = CC(C)C[C@H](NC(=O)[C@H](Cc1ccc(O)cc1)NC(=O)[C@@H]1CC(=O)NCCC[C@H](N)C(=O)N[C@@H](CCCCN)C(=O)N[C@@H](CCCCN)C(=O)N1)C(=O)O [compound 96, c[OrnKKD]YL] (H-[Orn]KKDYL-OH; lactam 1-4)
input: # rank_down: sort by IC50, max first // ordering of labels required in reply
output: Q, S, R, P
(Q: 10600 nM, S: 1930 nM, R: 716 nM, P: 37.7 nM)
